# measurement_target: Human immunodeficiency virus type 1 integrase (Human immunodeficiency virus 1, UniProt Q7ZJM1)
# Sequence (Q7ZJM1 whole entry): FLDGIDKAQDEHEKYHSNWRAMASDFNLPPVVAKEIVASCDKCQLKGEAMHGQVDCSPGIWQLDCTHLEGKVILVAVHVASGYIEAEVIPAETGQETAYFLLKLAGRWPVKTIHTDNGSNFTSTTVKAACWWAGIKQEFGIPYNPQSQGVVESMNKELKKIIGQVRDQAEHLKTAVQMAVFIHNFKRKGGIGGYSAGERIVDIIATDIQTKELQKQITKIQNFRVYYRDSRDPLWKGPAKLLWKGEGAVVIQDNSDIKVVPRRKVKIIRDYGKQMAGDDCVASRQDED
# experimental_details: Inhibition of strand transfer activity of HIV-1 integrase using [gamma-32P]-labeled DNA as substrate
readout_label: pIC50
Keep in mind that pIC50 stands for -log10 of concentration in molar terms.

Answered cases to consult:
# sample_smiles, observed_measurement
data = [
    ("CN(C)c1c(C(=O)NCc2ccc(F)cc2F)c(=O)n(O)c2ncccc12", 7.06),
    ("NCCNc1c(C(=O)NCc2ccc(F)cc2F)c(=O)n(O)c2ncccc12", 7.41),
    ("O=C(NCc1ccc(F)cc1F)c1c(NCCCCc2ccccc2)c2cccnc2n(O)c1=O", 6.55),
    ("O=C(NCc1ccc(F)cc1F)c1c(Nc2ccc(-c3ccccc3)cc2)c2cccnc2n(O)c1=O", 6.47),
    ("CCOC(=O)[C@@H]1CCCN1c1c(C(=O)NCc2ccc(F)cc2F)c(=O)n(O)c2ncccc12", 6.51),
]

Okay, now this molecule:
Memo: N#Cc1ccc(-c2ccc(Nc3c(C(=O)NCc4ccc(F)cc4F)c(=O)n(O)c4ncccc34)cc2)cc1 , reported pIC50: 6.89
